Could you please report measured Kd for the items listed next?

Log: GSK3A, molecule O=c1cc(N2CCOCC2)nc2n(Cc3ccccc3F)ccn12 , Kd = > 10000 nM

Short answer on GSK3A for COc1ccc(CSc2nnc(-c3ccc4nccn4c3)o2)cc1C(F)(F)F , Kd: 250 nM

Entry COc1ccc(CSc2nnc(-c3ccc4ncsc4c3)o2)cc1C(F)(F)F : Kd on GSK3A = 79 nM

GSK3A data for O=C(Nc1n[nH]c2nc(-c3cccs3)c(Br)cc12)C1CCCC1 ; its Kd: 62 nM

###

tested on: PKAC-alpha; construct: gene PRKACA; settings: concentration: 1 μM, replicates: in singlicate; n = 1
measuredQuantity: %Inh (%)
Express it in %; write the number only.

%Inh reading for c1ccc(-c2ccnc3[nH]ccc23)cc1 : 0

Form field %Inh, entry CNC(=O)c1ccc(C)c(-n2c(C)cc(OCc3ccc(F)cc3F)c(Br)c2=O)c1 : 0

Measured %Inh, COc1cccc(NC(=O)Nc2ccc(C)c(-c3ccc(C(=O)Nc4ccncc4)cc3)c2)c1 : 17

Measured %Inh, COc1ccc(-c2coc3ccc(-c4nnc(C)o4)cc23)cc1 : 3

Just so you know, measured %Inh for COc1ccc(Nc2nccc(N3CCC(NC(=O)C(C)c4ccc(Cl)cc4)C3)n2)cc1 (stereo not drawn) came out at 0

Measured %Inh of O=C(Nc1n[nH]c2nc(-c3ccco3)c(Br)cc12)C1CCN(Cc2ccccc2)C1.O=C(O)[C@H](O)[C@@H](O)C(=O)O (stereo not drawn) : 10

Measured %Inh, O=C(Nc1n[nH]c2nc(-c3cccs3)c(Br)cc12)C1CC1 : 0

%Inh for Nc1cccc(-c2ccc3c(N)n[nH]c3c2)n1 is 0

%Inh reported for this molecule CC[C@@H]1CO[C@H](C(=O)Nc2ccccc2)CN1c1cc(-c2ccc3c(N)n[nH]c3c2)nc(NC)n1 : 74

###

test system: MEK1; construct: gene MAP2K1; conditions: concentration: 1 μM, replicates: in singlicate; n = 1
measuredQuantity: %Inh (%)
Please state the figure in %; there is no need to write the unit.

compound Fc1ccc(-c2nc3n(c2-c2ccncc2)CCS3)cc1 , %Inh observed: 0

Entry under test: CCCCc1nn2ncccc2c1-c1ccnc(NC2CC2)n1 . Its %Inh was 0

compound c1ccc(-c2ccnc3[nH]ccc23)cc1 , %Inh observed: 49

// Nc1ncnc2occ(-c3ccc4c(c3)CCN4C(=O)Cc3cc(F)ccc3F)c12 : %Inh value = 0

Briefly, %Inh measured for COc1ccc2cc(-c3nc(-c4ccccc4C(C)C)[nH]c3-c3ccncc3)ccc2c1 : 0

According to the records, this compound CCc1ccc(-c2ccc3c(c2)-c2n[nH]cc2S(=O)(=O)N3C)cc1 displays %Inh of 10

Lab note: measured %Inh of CN1c2ccc(-c3ccc(C(N)=O)cc3)cc2-c2[nH]ncc2S1(=O)=O was 41

According to the records, this compound CS(=O)(=O)CCNCc1nc(-c2ccc3ncnc(Nc4ccc5c(cnn5Cc5ccccc5)c4)c3c2)cs1.Cl.Cl displays %Inh of 0

The compound listed as COc1nccc(-c2c(-c3ccc(F)cc3)ncn2CCCN2CCOCC2)n1 shows %Inh equal to 0

The reported %Inh of the compound CS(=O)(=O)Cc1ccc(Nc2nccc(-c3c(-c4cccc(NC(=O)C5CCCCC5)c4)nn4ncccc34)n2)cc1 was 32

// %Inh value for CSc1ccc(-c2nc3n(c2-c2ccncc2)CCC3)cc1 : 1

# %Inh (compound: Cc1ccccc1-c1cc(-c2c[nH]nc2-c2ccccn2)ccn1 ) is 0

Entry O=C(Nc1n[nH]c2nc(-c3cccs3)c(Br)cc12)C1CC1 — recorded %Inh = 0

Recorded result, CNc1nc(-c2ccc3c(N)n[nH]c3c2)cc(N2C[C@@H](C(=O)Nc3ccccc3)CC[C@H]2C)n1 , %Inh: 0

The compound identified as COc1ccc(CSc2nnc(-c3ccc4nccn4c3)o2)cc1C(F)(F)F registered its %Inh at 13

Just so you know, measured %Inh for COc1cccc(C2=C(Nc3cc(Cl)c(O)c(Cl)c3)C(=O)NC2=O)c1 came out at 0

%Inh recorded for this compound, Cc1ccc(NC(=O)Nc2ccc(Cl)cc2)cc1-c1ccc(C(=O)Nc2ccncc2)cc1 , is 0

Input CNc1nc(-c2ccc3c(N)n[nH]c3c2)cc(N2C[C@@H](C(=O)NC3CCCCC3)OC[C@H]2C)n1 . Output %Inh: 8

###

For each of the molecules below, state its %Inh.
test system: CDK2; conditions: concentration: 1 μM, replicates: in singlicate; n = 1
Reply with the number, then its unit.

Cc1ccc(NC(=O)Nc2ccc(Cl)cc2)cc1-c1ccc(C(=O)Nc2ccncc2)cc1 has a reported %Inh of 0%

Entry NS(=O)(=O)c1cccc(N/C=C2\C(=O)Nc3ccc(S(=O)(=O)Cc4c(Cl)cccc4Cl)cc32)c1 , %Inh reported as 0%

// field: %Inh; key: Cc1cccc2c(-c3ccncn3)c(-c3ccc(F)cc3)nn12 ; value = 0%

# molecule CC(=O)c1c(C)c2cnc(Nc3ccn(C)n3)nc2n(C2CCCC2)c1=O ; its %Inh = 3%

O=C(Nc1n[nH]c2nc(-c3cccs3)c(Br)cc12)C1CC1 has a reported %Inh of 77%

Record summary for CC[C@@H]1CO[C@H](C(=O)Nc2ccccc2)CN1c1cc(-c2ccc3c(N)n[nH]c3c2)nc(NC)n1 : reported %Inh = 0%

The molecule listed as Cl.Cl.Cl.N#Cc1ccc(CCNc2nccc(-c3cccc(CN4CCNCC4)c3)n2)cc1 shows %Inh equal to 0%

For record CN1c2ccc(-c3ccc(C(N)=O)cc3)cc2-c2[nH]ncc2S1(=O)=O the listed %Inh is 0%

###

Answer each item with its documented %Inh.
system: SRMS; settings: concentration: 1 μM, replicates: in singlicate; n = 1
Unit % implied. Number only.

O=C(Nc1n[nH]c2nc(-c3cccs3)c(Br)cc12)C1CC1 [SB-735297] yielded %Inh of 5

compound COc1ccc(Nc2nccc(N3CCC(NC(=O)c4cc5ccccc5s4)C3)n2)cc1 (centres unmarked) [GSK1379738] , %Inh observed: 0

%Inh reported for this compound Cc1ccc(NC(=O)Nc2ccc(Cl)c(C(F)(F)F)c2)cc1-c1ccc(C(=O)Nc2ccncc2)cc1 [GSK1398470] : 0

Measured %Inh of COC(=O)c1cccc(NC(=O)NC2CCN(c3ccnc(Nc4ccc(OC)cc4)n3)C2)c1 (centres unmarked) [GSK1379746] : 0

%Inh recorded for this compound, O=C1NC(=O)C(c2ccc(Cl)cc2)=C1Nc1ccc(O)cc1 [SB-340867] , is 0

Field %Inh (entry Nc1nccc(-c2c(-c3ccc(F)cc3)ncn2C2CCN(Cc3ccccc3)CC2)n1 [SB-219980] ) reads 11

compound CNc1cc(-c2ccc3c(N)n[nH]c3c2)nc(N)n1 [GSK2224810] , %Inh observed: 0

Record COc1ccc(Nc2nccc(N3CCC(NC(=O)C(C)c4ccc(Cl)cc4)C3)n2)cc1 (centres unmarked) [GSK1379735] . Reported %Inh: 2

# %Inh of CC(C)c1cc(-c2ccc3c(N)n[nH]c3c2)nc(N)n1 [GSK2250882] = 8

The compound CS(=O)(=O)CCNCc1nc(-c2ccc3ncnc(Nc4ccc5c(cnn5Cc5ccccc5)c4)c3c2)cs1.Cl.Cl [GW569716] showed %Inh equal to 0

%Inh reported for this compound CS(=O)(=O)CCNCc1nc(-c2ccc3ncnc(Nc4ccc(OCc5ccccc5)c(Cl)c4)c3c2)cs1.Cl [GW582764] : 0

// field: %Inh; key: COc1cccc(NC(=O)Nc2ccc(C)c(-c3ccc(C(=O)Nc4ccncc4)cc3)c2)c1 [GSK1398474] ; value = 0

Recorded %Inh (compound c1ccc(-c2ccnc3[nH]ccc23)cc1 [SB-693578] ): 0

Record CNc1nc(-c2ccc3c(N)n[nH]c3c2)cc(N2C[C@@H](C(=O)NC3CCCCC3)OC[C@H]2C)n1 [GSK2375584] . Reported %Inh: 0

GET /value?item= O=C1NC(=O)C(c2ccc(Cl)cc2)=C1Nc1cccc(Cl)c1 [SB-317651] &field=%Inh returns 0

Recorded result, CC(=O)c1cccc(NC(=O)NC2CCN(c3ccnc(Nc4ccc(F)cc4)n3)C2)c1 (centres unmarked) [GSK1379710] , %Inh: 8

The measured %Inh associated with Cc1ccc(NC(=O)Nc2ccc(Cl)cc2)cc1-c1ccc(C(=O)Nc2ccncc2)cc1 [GSK1398472] reads 0

###

Exercise: state measured %Inh for each of the compounds provided.
tested on: MKNK2; conditions: concentration: 1 μM, replicates: in singlicate; n = 1
Include the unit right after the number.

# %Inh of NS(=O)(=O)c1cccc(N/C=C2\C(=O)Nc3ccc(S(=O)(=O)Cc4c(Cl)cccc4Cl)cc32)c1 = 12%

Entry c1ccc(-c2ccnc3[nH]ccc23)cc1 — recorded %Inh = 25%

%Inh reported for this compound Cc1ccc(NC(=O)c2ccc(Cl)cc2)cc1-c1ccc(C(=O)Nc2ccncc2)cc1 : 12%

%Inh in this record for CCn1c(-c2ccccc2)nc2cnccc21 : 28%

// %Inh lookup, compound = Nc1cccc(-c2ccc3c(N)n[nH]c3c2)n1 , result: 61%
